System: Caco-2 cells
Experiment: Caco-2 membrane permeability and efflux rate
Assay type: in vitro ADME
Details: Caco-2, 5 μM, 2 hours, top end to basal end
Parameter: Papp(A-B)

INSERT INTO assay_data (compound, reading) VALUES
  ('CC(O)[C@H](C)Nc1ncc(C(F)(F)F)c(-c2c[nH]c3c(P(C)(C)=O)cccc23)n1 (single isomer, unassigned) [Compound 130]', '5.82 10^−6, cm/s'),
  ('CP(C)(=O)c1cccc2c(-c3nc(NC4(CO)CCOC4)ncc3C(F)(F)F)c[nH]c12 (single isomer, unassigned) [Compound 119]', '2.23 10^−6, cm/s'),
  ('CC(CO)CNc1ncc(C(F)(F)F)c(-c2c[nH]c3c(P(C)(C)=O)cccc23)n1 (single isomer, unassigned) [Compound 150]', '4.68 10^−6, cm/s'),
  ('CP(C)(=O)c1cccc2c(-c3nc(NCC4CC4CO)ncc3C(F)(F)F)c[nH]c12 (single isomer, unassigned) [Compound 144]', '2.89 10^−6, cm/s');
